Tested on: DU-145
TEST SUMMARY: NCI tumour cell line growth inhibition, 48 h
The source made the active and inactive calls. Cut-off read from the data, not from the text of the source: active = GI50 up to about 1.1 µM and inactive = higher.
Measured GI50, listed per entry.
MEASUREMENT LABEL: GI50

MOLECULE	MEASUREMENT LABEL	ENDPOINT RESULT
O=C1c2ccccc2C(=O)C2NC(CCCCCSSCCCCCC3=NC4C(=O)c5ccccc5C(=O)C4N3)=NC12 (centres undefined)	GI50	> 100 µM (inactive)
COC(=O)C(NC(=O)OC(C)(C)C)P(=O)(OC)OC (centres undefined)	GI50	> 100 µM (inactive)
CCCC(=O)OCC(COC(=O)CCC)OC(=O)CCC	GI50	29.9 µM (inactive)
COc1cccc2c1OC1c3ccccc3OCC1C2 (centres undefined)	GI50	> 100 µM (inactive)
CN(Cc1c2ccccc2cc2ccccc12)S(=O)(=O)c1ccc(-c2c3nc(c(-c4ccc(S(=O)(=O)N(C)Cc5c6ccccc6cc6ccccc56)cc4)c4ccc([nH]4)c(-c4ccc(S(=O)(=O)N(C)Cc5c6ccccc6cc6ccccc56)cc4)c4nc(c(-c5ccc(S(=O)(=O)N(C)Cc6c7ccccc7cc7ccccc67)cc5)c5ccc2[nH]5)C=C4)C=C3)cc1	GI50	> 100 µM (inactive)
O=S(=O)(c1ccc(Br)cc1)N1CCN(S(=O)(=O)c2ccc(Br)cc2)CC1	GI50	> 100 µM (inactive)
O=C1CC(CC(=O)c2ccc(Br)cc2)C(O)=C1C(=O)c1ccc(Br)cc1 (centres undefined)	GI50	> 100 µM (inactive)
C[C@H]1/C(=C/C(=O)OCCN(C)C)CC[C@H]2[C@H]1C(=O)C[C@H]1C(C)(C)[C@@H](O)CC[C@]21C	GI50	> 100 µM (inactive)
CCOC(=O)C1OC(=O)CC1C1(C(=O)OCC)C=CC(=O)O1 (centres undefined)	GI50	> 100 µM (inactive)
CN(C)CCNc1ncnc2[nH]c(-c3ccc4ccccc4c3)nc12	GI50	> 100 µM (inactive)
Cc1ccc(S(=O)(=O)N/N=C2\C3CC4CC(C3)C2C4)cc1 (centres undefined)	GI50	> 10 µM (inactive)
CCN(CC)CCC(=O)/C=C/c1ccccc1	GI50	22.5 µM (inactive)
Cn1c(=O)n2n(c1=O)C(C)(C13CC4CC(CC(C4)C1)C3)C13CC4CC(CC1C4)CC23 (centres undefined)	GI50	> 100 µM (inactive)
CCOC(=O)c1csc(NC(=O)CN2CCCC2)n1	GI50	> 100 µM (inactive)
COc1cccc2c1OC(c1ccc(C#N)cc1)C([N+](=O)[O-])=C2 (centres undefined)	GI50	3.12 µM (inactive)
O=c1cc(N2CCCC2)[nH]c(=O)n1-c1ccc(Cl)cc1	GI50	> 100 µM (inactive)
O=C(O)CCC1C(=O)C2CCN1CC2 (centres undefined)	GI50	> 100 µM (inactive)
CC(C)(C)OC(=O)C(C1NC(C(=O)O)C(C)(C)S1)N1C(=O)c2ccccc2C1=O (centres undefined)	GI50	> 100 µM (inactive)
NC(=S)NNC(=S)NC(=O)c1ccco1	GI50	> 10 µM (inactive)
N#C/C(C(=S)NCc1ccccc1)=C(/N)N1CCCC1	GI50	> 100 µM (inactive)
O=C1C(NCCc2cc(Br)c(O)c(Br)c2)=CC(=O)c2ncccc21	GI50	3.66 µM (inactive)
COC(=O)c1ccc(NCc2cc(OC)ccc2OC)cc1	GI50	> 100 µM (inactive)
CSC(=S)CC(O)[C@@H]1CC2c3ccccc3C1c1ccccc12 (some centres undefined)	GI50	15.2 µM (inactive)
CCOC(=O)c1cn(-c2ccc([N+](=O)[O-])cc2)c(=S)n2c1nc1ccccc12	GI50	81.7 µM (inactive)
O=C1O[C@H]2[C@H](O)[C@@H](OC(=O)c3cc(O)c(O)c4c3[C@@H]3C1=CC(=O)C(O)(O)C3(O)O4)[C@H](OC(=O)c1cc(O)c(O)c(O)c1)O[C@@H]2CO (some centres undefined)	GI50	> 100 µM (inactive)
CC(C)(C)N/C(N)=N/C#N	GI50	> 100 µM (inactive)
Clc1sc(Cl)c2c1[C@H](Br)C[C@@H]2Cl	GI50	33.7 µM (inactive)
COc1ccc(-c2cc(=O)c3c(OC)c(OC)c(OC)c(OC)c3o2)c(OC)c1	GI50	30.4 µM (inactive)
COP(=O)(OC)C(O)/C=C(\Cl)c1ccc(Cl)cc1 (centres undefined)	GI50	> 100 µM (inactive)
N#Cc1nnc2ccccc2c1N	GI50	> 100 µM (inactive)
CS(=O)(=O)c1nc(-c2cc3c(c(S(C)(=O)=O)n2)CCC3)cc2c1CCC2	GI50	> 100 µM (inactive)
CC(C)CC1c2[nH]c3ccccc3c2C[C@H]2C(=O)NC(COC(C)(C)C)C(=O)N12 (some centres undefined)	GI50	34.5 µM (inactive)
C=C(C)C1Cc2c(cc(OC)c3c(=O)c4cccc(O)c4oc23)O1 (centres undefined)	GI50	45.8 µM (inactive)
CC1=CC(C/C(C)=C/COc2ccc3ccc(=O)oc3c2)OC1=O (centres undefined)	GI50	> 100 µM (inactive)
CC[C@@H]1CC[C@@H]2[C@H](CC[C@]3(C)[C@@H](OS(=O)(=O)c4ccc(C)cc4)CC[C@@H]23)[C@H]1CO	GI50	> 100 µM (inactive)
CCOC(=O)C1(C(=O)OCC)CC(=O)[C@@]2(C1)OCC[C@H]1OC(=O)C[C@H]12	GI50	> 100 µM (inactive)
Cn1c2ccccc2c(=O)c2cccc(C(=O)NCC(=O)O)c21	GI50	> 100 µM (inactive)
Cn1c(=O)cc(N2CCCC2)[nH]c1=O	GI50	> 100 µM (inactive)
COC(=O)c1c2c(c3[nH]c4ccccc4c3c1C(=O)OC)C(=O)C1=C(C2=O)C2(Cl)C(Cl)C(Cl)C1(Cl)C2(Cl)Cl (centres undefined)	GI50	2.07 µM (inactive)
